- Assay Name: KKLEB cell viability reduction – uHTS, fluorescence assay plates, cytotoxicity control for CF NF-kB inhibitor project, primary screen (AID 602141)
- Measurement Setup: KKLEB CF airway cells viability, ATPlite luminescence, overnight; at 5 µM; hits give low values; cells stimulated with P. aeruginosa culture filtrate
The whole screen tested about 360,000 compounds, of which about 1,300 (0.36%) were called active. The list comes from a sample in which actives are over-represented; it also holds close analogues and randomly drawn compounds.
Measured activity change (cytotoxicity), listed per entry.
Record the value in %, omitting the unit from your answer.

A selection of reference data follows.
Molecule: CCCn1nnc2sc3c(c2c1=O)CCC(C)C3 (stereo unspecified)
Reading: -55.8
--
Molecule: Cc1cc(NC(=O)CSc2nc(C(C)C)nc3sc4c(c23)CCC(C)C4)no1 (stereo unspecified)
Reading: -1.3
--
Molecule: Clc1ccc(-c2cc(-c3ccccn3)on2)c(Cl)c1
Reading: -62.1

Report activity change (cytotoxicity) for Fc1ccc(-c2ccc(CNCc3ccccn3)o2)cc1Cl
5.4

Please look at this molecule and report its activity change (cytotoxicity): CCCSc1nc2sc3c(c2c(=O)n1-c1ccc(OC)cc1)CCN(C)C3
6.6

Give the measured activity change (cytotoxicity) for N#CCCN(C(=O)Nc1ccc(Cl)c(Cl)c1)C1CCCCC1
11.3
